- Test system: 616215-338-R-J1-PDC complex spheroids, viability % test/control;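 note: spheroids exposed to agents for 7 days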
- experimental.details: Anticancer human tumor 616215-338-R-J1-PDC patient-derived colon adenocarcinoma cell line growth inhibition [CLK]
- assay.conditions: curve of first compound; second compound 0.0316 µM
pIC50: −log10 of the molar value.
observation.type: pIC50

Some entries whose results are on file:
{"columns": ["compound", "pIC50"],
 "data": [
  ["C=CC(=O)Nc1cc(Nc2nccc(-c3cn(C)c4ccccc34)n2)c(OC)cc1N(C)CCN(C)C + CNC(=O)c1ccc(Nc2nc(OC3CCCC3)c3c(-c4ccc5nc(C)oc5c4)c[nH]c3n2)c(OC)c1", "< 6.52"],
  ["Nc1ccn(C2OC(CO)C(O)C2(F)F)c(=O)n1 (stereo not given) + CNC(=O)c1ccc(Nc2nc(OC3CCCC3)c3c(-c4ccc5nc(C)oc5c4)c[nH]c3n2)c(OC)c1", "> 7.50"],
  ["CC(=O)O[C@H]1C(=O)[C@@]2(C)[C@H]([C@H](OC(=O)c3ccccc3)[C@]3(O)C[C@H](OC(=O)[C@H](O)[C@@H](NC(=O)c4ccccc4)c4ccccc4)C(C)=C1C3(C)C)[C@]1(OC(C)=O)CO[C@@H]1C[C@@H]2O + CN1CCN(c2cc(C(=O)Nc3cc4cc(-c5cnn(C)c5)ccc4cn3)ccn2)CC1", "> 7.50"],
  ["CC(Nc1ccc2c(c1)OCCn1cc(N3C(=O)OCC3C(F)F)nc1-2)C(N)=O (stereo not given) + CN1CCN(c2cc(C(=O)Nc3cc4cc(-c5cnn(C)c5)ccc4cn3)ccn2)CC1", "< 5.00"]
]}

Attention now shifts to the item below.
What pIC50 value was documented for this compound, CC1COCCN1c1cc(C2(S(C)(=N)=O)CC2)nc(-c2ccnc3[nH]ccc23)n1 (stereo not given) + CNC(=O)c1ccc(Nc2nc(OC3CCCC3)c3c(-c4ccc5nc(C)oc5c4)c[nH]c3n2)c(OC)c1 ?
< 5.00
